biological target: Mannose-6-phosphate isomerase (Homo sapiens) (UniProt P34949); test: inhibitors of human PMI, primary screen, biochemical, fluorescence intensity, coupled assay (AID 1209); details: purified PMI enzyme, at 20 µM, hits give high values;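 also: plate controls were DMSO vehicle for no effect and wells lacking substrate for full effect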
Sequence (P34949 whole entry, looked up): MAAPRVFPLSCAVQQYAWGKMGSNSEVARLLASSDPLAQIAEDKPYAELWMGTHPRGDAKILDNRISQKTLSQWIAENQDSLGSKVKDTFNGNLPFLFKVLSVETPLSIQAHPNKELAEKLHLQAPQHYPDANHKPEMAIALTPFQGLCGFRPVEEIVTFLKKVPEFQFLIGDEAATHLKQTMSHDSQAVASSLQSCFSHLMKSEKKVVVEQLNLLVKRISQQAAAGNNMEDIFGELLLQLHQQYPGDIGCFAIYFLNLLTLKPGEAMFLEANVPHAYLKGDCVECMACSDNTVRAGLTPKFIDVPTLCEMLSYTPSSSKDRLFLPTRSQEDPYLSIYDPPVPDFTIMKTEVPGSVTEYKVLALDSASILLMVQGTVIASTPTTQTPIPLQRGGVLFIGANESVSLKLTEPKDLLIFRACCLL
About 810 (0.43%) of roughly 190,000 compounds were called active. This excerpt belongs to a sample that is enriched for actives.
What inhibition was measured for each of the following?
Give a bare numeral; the unit % is implied.

Qu. So what does the record say about inhibition for COc1cccc(NC(=S)N2CCN(c3ccccn3)CC2)c1 ?
Ans. 12.3

Qu. So what does the record say about inhibition for CCCCOc1ccc(CSc2nnc(C)n2N)cc1[N+](=O)[O-] ?
Ans. -8.7

Qu. So what does the record say about inhibition for CC(=O)Nc1ccc(NC(=O)COc2c(C)cc(Br)cc2C)cc1 ?
Ans. 13.2

Qu. So what does the record say about inhibition for C=CCc1ccccc1OCCOc1ccc([N+](=O)[O-])cc1/C=N/NC(N)=O ?
Ans. 3.8

Qu. So what does the record say about inhibition for Cc1nn(Cc2cccc(C(=O)N3N=C(C(F)F)CC3(O)C(F)F)c2)c(C)c1[N+](=O)[O-] (stereo not given) ?
Ans. -1.8

###

What inhibition was measured for each of the following?
biological target: Mannose-6-phosphate isomerase (Homo sapiens) (UniProt P34949); assay: inhibitors of human PMI, primary screen, biochemical, fluorescence intensity, coupled assay (AID 1209); settings: purified PMI enzyme, at 20 µM, hits give high values;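 also: plate controls were DMSO vehicle for no effect and wells lacking substrate for full effect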
Out of some 190,000 compounds screened, about 810 (0.43%) were called active. This excerpt belongs to a sample that is enriched for actives.
Give a bare numeral; the unit % is implied.

Qu. So what does the record say about inhibition for CCN1C(=O)c2cccc3c(S(=O)(=O)Nc4ccccc4)ccc1c23 ?
Ans. -1

Qu. So what does the record say about inhibition for Cc1ccccc1C(=O)NCCc1nnc(SCC(=O)Nc2nc(-c3ccccc3)cs2)n1C ?
Ans. -0.8

Qu. So what does the record say about inhibition for NC(N)=N/N=C/c1ccc(Br)cc1 ?
Ans. -2.5

Qu. So what does the record say about inhibition for CC1=NOC(=O)/C1=C/c1ccc(-c2ccc(Cl)cc2)o1 ?
Ans. 21.9

Qu. So what does the record say about inhibition for Cc1ccnn1CC(=O)N/N=C/c1ccc2c(c1)OCO2 ?
Ans. -2.6

Qu. So what does the record say about inhibition for CCc1ccc(Nc2cc(C)nc3nc(C)nn23)cc1 ?
Ans. -5.4

Qu. So what does the record say about inhibition for CN(/N=C/c1ccco1)C1=NS(=O)(=O)c2ccccc21 ?
Ans. 10.9

Qu. So what does the record say about inhibition for CCN1C(=O)c2cccc3c(NC(=O)C(C)(C)C)ccc1c23 ?
Ans. 13.8

Qu. So what does the record say about inhibition for COc1ccccc1-n1cnnc1SCC(=O)Nc1cccc(S(=O)(=O)N2CCCCC2)c1 ?
Ans. 7.9

Qu. So what does the record say about inhibition for Cc1cc(C)n2nc(CCc3nc4nc(C)cc(C)n4n3)nc2n1 ?
Ans. -4.4

Qu. So what does the record say about inhibition for Cc1nc(NC(=O)c2ccccc2)sc1-c1csc(Nc2ccc(Cl)cc2)n1 ?
Ans. 53.1

Qu. So what does the record say about inhibition for COc1ccc(OC)c(NS(=O)(=O)c2ccc(NC(=O)c3ccc(NS(C)(=O)=O)cc3)cc2)c1 ?
Ans. 1.4

Qu. So what does the record say about inhibition for Cc1ccc(NC(=O)CSc2n[nH]c(-c3ccco3)n2)c(C)c1 ?
Ans. -4

Qu. So what does the record say about inhibition for Cc1ccccc1-c1nnc(NC(=O)c2cc3ccccc3oc2=O)s1 ?
Ans. -1.2

Qu. So what does the record say about inhibition for O=C(CNS(=O)(=O)c1cccs1)Nc1ccc2c(c1)OCCO2 ?
Ans. 9.1

Qu. So what does the record say about inhibition for CN(/N=C/c1ccc(Br)o1)C1=NS(=O)(=O)c2ccccc21 ?
Ans. -7.5

Qu. So what does the record say about inhibition for Cc1occc1C(=O)NNC(=O)C1CCCCC1 ?
Ans. 20.4

Qu. So what does the record say about inhibition for Cc1cccc(N2C(=O)SC(SC(=Nc3ccccc3)Nc3ccccc3)C2=O)c1 (stereo not drawn) ?
Ans. 52.5

Qu. So what does the record say about inhibition for O=C(Cn1nc(C(F)F)cc1C(F)F)N/N=C/c1ccc2c(c1)OCO2 ?
Ans. 92.9

Qu. So what does the record say about inhibition for Cc1cc(C)n2nc[n+](C)c2n1 ?
Ans. 72.6

Qu. So what does the record say about inhibition for CC1(C)OC(=O)C(=Cc2ccc(-c3ccc(Cl)c(C(=O)O)c3)o2)C(=O)O1 ?
Ans. -12.1

Qu. So what does the record say about inhibition for COc1ccc(-c2cc(=O)c3c(O)c(OC)c(O)cc3o2)cc1 ?
Ans. 0.6

Qu. So what does the record say about inhibition for Cc1nc(NC(=O)c2ccccc2)sc1-c1csc(Nc2ccc(F)cc2)n1 ?
Ans. 45

Qu. So what does the record say about inhibition for COc1ccc(-n2c(N)c(C(=O)NCC3CCCO3)sc2=S)cc1 (stereo not drawn) ?
Ans. 6

Qu. So what does the record say about inhibition for COc1ccc(C(=O)COC(=O)c2cccnc2Cl)c(OC)c1 ?
Ans. 0.1

Qu. So what does the record say about inhibition for Cc1cc(=O)c2c(O)c(O)ccc2o1 ?
Ans. 77.7

Qu. So what does the record say about inhibition for Cc1ccccc1Cn1ccc(NC(=O)c2cnn3cccnc23)n1 ?
Ans. 10.4

Qu. So what does the record say about inhibition for CNC(=O)CN1C(=O)c2cccc3cccc1c23 ?
Ans. -1.5

Qu. So what does the record say about inhibition for COC(=O)c1c(-c2ccc(C)cc2)csc1NC(=O)C1CC=CCC1C(=O)O (stereo not drawn) ?
Ans. 7.7

Qu. So what does the record say about inhibition for CCc1ccc(NC(=O)c2cc(C)on2)cc1 ?
Ans. 6.1

Qu. So what does the record say about inhibition for CCOC(=O)c1c(-c2cccs2)csc1N ?
Ans. 51

Qu. So what does the record say about inhibition for CCOC(=O)c1cnc2c(-c3ccccc3)c(C)nn2c1N ?
Ans. 9.6

Qu. So what does the record say about inhibition for CCN1C(=O)c2cccc3c(N)ccc1c23 ?
Ans. 64.7

Qu. So what does the record say about inhibition for Cc1nc2c(C(=O)NCc3ccccc3)c[nH]n2c(=O)c1Cl ?
Ans. 12.3

Qu. So what does the record say about inhibition for CCOC(=O)c1c(-c2ccncc2)csc1N ?
Ans. 23.6

Qu. So what does the record say about inhibition for O=C(CSc1nccc(=O)[nH]1)Nc1ccc(F)c(Cl)c1 ?
Ans. 1.7

Qu. So what does the record say about inhibition for COc1c(Cl)cc(Cl)cc1C(=O)Nc1ccc(NC(C)=O)cc1 ?
Ans. 7.9

Qu. So what does the record say about inhibition for NC(=O)N/N=C/c1ccccc1OCC(=O)NCc1ccccc1 ?
Ans. 1.8

Qu. So what does the record say about inhibition for O=C(N/N=C/c1coc2ccccc2c1=O)c1ccccc1Br ?
Ans. -7.2

Qu. So what does the record say about inhibition for N#Cc1c(NC(=O)CSc2n[nH]c(Cc3ccccc3)n2)oc(-c2ccccc2)c1-c1ccccc1 ?
Ans. -1.5

Qu. So what does the record say about inhibition for Cc1ccc(OCC(=O)NCc2ccccc2)c([N+](=O)[O-])n1 ?
Ans. 20.4

Qu. So what does the record say about inhibition for CCn1nnnc1SCC(=O)Nc1cc(OC)cc(OC)c1 ?
Ans. 2.1

Qu. So what does the record say about inhibition for CCOC(=O)c1c(-c2ccc(C)s2)csc1N ?
Ans. 62.1

Qu. So what does the record say about inhibition for CCN1/C(=N\N)c2cccc3cccc1c23 ?
Ans. -48

Qu. So what does the record say about inhibition for O=C(Cc1coc(-c2ccc(F)cc2)n1)N1CCOCC1 ?
Ans. 1

Qu. So what does the record say about inhibition for Cc1cc2n(n1)SC(Nc1ccc(F)cc1)N2 (stereo not drawn) ?
Ans. 64.5

Qu. So what does the record say about inhibition for O=C1SC(SC(=Nc2ccccc2)Nc2ccccc2)C(=O)N1c1ccccc1 (stereo not drawn) ?
Ans. -11.6

Qu. So what does the record say about inhibition for N#CCCn1cc(C(=O)O)c(-c2cc3ccccc3o2)n1 ?
Ans. -2.3
